Hello, the source for this data is paper PMC5430874, in case you need it.

Target: untagged GPR139(WT) (Homo sapiens, UniProt Q6DWJ6)
Test: Fluo-4 Ca2+-assay, untagged wild-type GPR139 in HEK293
Conditions: untagged WT receptor
Source text: To study the influence of specific amino acids in the predicted binding pocket on receptor function, the desired mutations were introduced into an N-terminally c-myc-tagged wild type human GPR139 (NM_001002911.3) in the pEGFP-N1 vector (BD Biosciences)[32], [33]. […] All pharmacological data have been analyzed by using Prism 6.0 (GraphPad Software Inc., San Diego). […]

>  <mol_smiles>
COc1cc(OC)cc(C(=O)NNC(=O)Nc2cccc3ccccc23)c1

>  <EC50>
772 nM

$$$$

* * *

Biological target: GPR139 F109A^3×33 (Homo sapiens, UniProt Q6DWJ6, F109A)
Construct: mGluR5 signal peptide (N)
Experiment: Fluo-4 Ca2+-assay, GPR139 mutant F109A
Details: F109A mutant
pEC50: −log10 of the molar value.
Measured pEC50 of individual entries

>  <compound>
COc1cc(OC)cc(C(=O)NNC(=O)Nc2cccc3ccccc23)c1

>  <pEC50>
< 5.10

$$$$
>  <compound>
N[C@@H](Cc1c[nH]c2ccccc12)C(=O)O

>  <pEC50>
< 2.00

$$$$
>  <compound>
N[C@@H](Cc1ccccc1)C(=O)O

>  <pEC50>
< 1.50

$$$$
>  <compound>
C[C@@H](NC(=O)CNC(=O)c1cccc(Cl)c1)c1ccccc1 (racemic)

>  <pEC50>
< 4.00

$$$$

* * *

Molecular target: myc-GPR139(WT) (Homo sapiens, UniProt Q6DWJ6)
Construct: mGluR5 signal peptide (N); expressed in transfected cells; host or cells: HEK293
Sequence (Q6DWJ6 2-353 limits assumed): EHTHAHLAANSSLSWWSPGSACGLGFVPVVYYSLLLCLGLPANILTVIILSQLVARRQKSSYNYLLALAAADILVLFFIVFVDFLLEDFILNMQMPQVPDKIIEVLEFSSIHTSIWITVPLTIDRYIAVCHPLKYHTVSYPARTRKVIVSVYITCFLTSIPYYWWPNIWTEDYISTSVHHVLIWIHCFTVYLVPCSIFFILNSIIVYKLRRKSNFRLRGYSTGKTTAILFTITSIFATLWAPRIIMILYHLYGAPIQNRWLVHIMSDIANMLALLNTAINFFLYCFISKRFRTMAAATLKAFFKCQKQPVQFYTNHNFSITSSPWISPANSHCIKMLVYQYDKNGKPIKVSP
Experiment: Fluo-4 Ca2+-assay, myc-tagged wild-type GPR139 in HEK293
Assay type: cell-based
Settings: myc-tagged wild-type (WT) receptor, Fluo-4 Ca2+-assay; read-out: EC50
pEC50: −log10 of the molar value.

>  <compound>
COc1cc(OC)cc(C(=O)NNC(=O)Nc2cccc3ccccc23)c1 [Compound 1a]

>  <pEC50>
6.17

$$$$

* * *

Target: GPR139 E105Q3x29 (Homo sapiens, UniProt Q6DWJ6, E105Q)
Construct: mGluR5 signal peptide (N)
Assay: Fluo-4 Ca2+-assay, GPR139 mutant E105Q
Settings: E105Q mutant

>  <mol_smiles>
COc1cc(OC)cc(C(=O)NNC(=O)Nc2cccc3ccccc23)c1

>  <target_of_assay>
GPR139 E105Q3x29 (Homo sapiens, UniProt Q6DWJ6, E105Q)

>  <value_units>
nM

>  <EC50>
145

$$$$
